- Organism: Rattus norvegicus
- measurement_notes: Hypolipidemic effects(liver weight) in male rats
- Format: functional
Catalogue of Change readings, one per entry.
The answer is to be given in %; state only the numeric part.

Would you please look over these solved cases?
| compound | Change, % |
| --- | --- |
| COC(=O)C(C)(C)CCCOc1ccc(C=N/N=C(/N)S)c(OCCCC(C)(C)C(=O)OC)c1 | 38 |
| CC(C)(CCCOc1ccc(Oc2ccc(OCCCC(C)(C)C(=O)O)cc2)cc1)C(=O)O | 0 |
| CC(C)(CCOc1ccc(Sc2ccc(OCCC(C)(C)C(=O)O)cc2)cc1)C(=O)O | 0 |
| CC(C)(CCCOc1ccc(S(=O)(=O)c2ccc(OCCCC(C)(C)C(=O)O)cc2)cc1)C(=O)O | 10 |
| COC(=O)c1cc(OCCCC(C)(C)C(=O)OC)cc(OCCCC(C)(C)C(=O)OC)c1 | 0 |

### Prompt Given `CC(C)(CCCOc1ccc(OCCCC(C)(C)C(=O)Oc2ccc(C(C)(C)C)cc2)cc1)C(=O)Oc1ccc(C(C)(C)C)cc1` , state its recorded Change.
### Response 0

### Prompt Try this compound too: CC(C)(CCCOc1ccc(OCCCC(C)(C)C(=O)O)c([S+]([O-])c2ccccc2)c1)C(=O)O (centres undefined)
### Response 16

### Prompt Try this compound too: `COC(=O)C(C)(C)CCCOc1ccc(OCCCC(C)(C)C(=O)OC)c(C(=O)c2ccccc2)c1`
### Response 11

### Prompt Try this compound too: `COC(=O)C(C)(C)CCCOc1cccc(OC)c1OCCCC(C)(C)C(=O)OC`
### Response 0

### Prompt Try this compound too: `CC(C)(CCOc1ccc(OCCC(C)(C)C(=O)O)c(Cl)c1)C(=O)O`
### Response 13

### Prompt Try this compound too: `COC(=O)C(C)(C)CCCOc1ccc(OCCCC(C)(C)C(=O)OC)c(C(C)(C)C)c1`
### Response 11

### Prompt Try this compound too: `COC(=O)C(C)(C)CCCOc1cc(C)c(OCCCC(C)(C)C(=O)OC)cc1C`
### Response 14
